# System: BALB/c 3T3 cells
# Parameters: key to the marks not given beside the values
metric-name: focus formation ability (intensity of the tumor-promoting activity)

compound	measurement
C=C1[C@@H](O)[C@@H]2O[C@]3(CC[C@H](/C=C/[C@@H](C)[C@@H]4CC(C)=C[C@@]5(O[C@H](C[C@@](C)(O)C(=O)O)CC[C@H]5O)O4)O3)CC[C@H]2O[C@@H]1[C@@H](O)C[C@H](C)[C@H]1O[C@@]2(CCCCO2)CC[C@H]1C [Okadaic acid, okadaic acid]	+++
CCCCCCCCCCCCCC(=O)O[C@@H]1[C@@H](C)[C@@]2(O)[C@@H](C=C(CO)C[C@]3(O)C(=O)C(C)=C[C@@H]23)[C@@H]2C(C)(C)[C@]12OC(C)=O [TPA, phorbol 12-myristate 13-acetate]	+++
O=[As]O [Sodium arsenite, sodium arsenite]	++
O=C1NS(=O)(=O)c2ccccc21.[Na] [Saccharin sodium, saccharin sodium]	++
[Na+].[Na+].[Na+].[O]=[V]([O-])([O-])[O-] [Sodium orthovanadate, sodium orthovanadate]	+++

Please look at the following compound next.
-- ask API: value(readout=focus formation ability (intensity of the tumor-promoting activity), system=BALB/c 3T3 cells) for record COc1ccc(O)c(C(C)(C)C)c1 [butylhydroxyanisol]
-- reply ++
